# Test Protocol: in vitro
# Test Settings: rat, hepatocytes
Here, each record is paired with measured hepatocyte CLint data.
Value expressed in µL/min/1e6 cells; do not type the unit.

Guide cases for hepatocyte CLint, answers given:
> print(dat)
                                     smiles  reported.result
1  Cc1c(Cl)ccc(OC2CCN(C[C@H](O)CNC(=O)c3c[nH]c(=O)c4cc(S(C)(=O)=O)ccc34)CC2)c1Cl               12
2  Cc1cc(Cl)ccc1OC1CCN(C[C@H](O)CNC(=O)c2c[nH]c(=O)c3ccc(S(C)(=O)=O)cc23)CC1                8
3  O=C(NC[C@@H](O)CN1CCC(Oc2ccc(Cl)c(Cl)c2)CC1)c1c[nH]c(=O)c2cc(S(=O)(=O)NCCO)ccc12                5

For the next question, use this compound.
Dear colleague, I am looking for the recorded hepatocyte CLint of the following compound: Cc1cc(Cl)ccc1OC1CCN(C[C@H](O)CNC(=O)c2c[nH]nc2C(F)(F)F)CC1
5

Values from ChEMBL document CHEMBL2203219
